The origin of these recorded values is patent US4556660A.

System: serotonin; compound 48/80-induced gastric lesions
Assay: Antagonistic activity on the effects of serotonin in the gastric lesion test (lesions induced by compound 48/80)
Type: in vivo, Male rats of a Wistar inbred strain
Details: Rattus norvegicus, po, read-out: gastric lesion test ED50
Measured quantity: ED50 (mg/kg)

molecule="c1cnc(NCCN2CCC(Nc3nc4ccccc4n3Cc3ccco3)CC2)nc1 [Compound 43]" assay_value=0.04
molecule="O=C(O)/C=C/C(=O)O.O=C(O)/C=C/C(=O)O.c1cnc(NCCN2CCC(Nc3nc4ccccc4n3Cc3cscn3)CC2)nc1 [Compound 72]" assay_value=0.08
molecule="NC(=O)c1cccnc1NCCN1CCC(Nc2nc3cccnc3n2Cc2ccc(F)cc2)CC1 [Compound 24]" assay_value=0.04
molecule="Cc1ccc(Cn2c(NC3CCN(CCNc4ncccn4)CC3)nc3ccccc32)cc1 [Compound 67]" assay_value=0.63
molecule="CN(c1nc2ccccc2n1Cc1ccc(F)cc1)C1CCN(CCNc2ncccn2)CC1 [Compound 75]" assay_value=0.63
molecule="Fc1ccc(Cn2c(NC3CCN(CCCCCNc4ncccn4)CC3)nc3ccccc32)cc1 [Compound 22]" assay_value=0.08
molecule="NC(=O)c1ccc(NCCN2CCC(Nc3nc4ccccc4n3Cc3ccc(F)cc3)CC2)nc1 [Compound 42]" assay_value=0.08
molecule="Cc1ccc(Cn2c(NC3CCN(CCNc4ccc(Br)cn4)CC3)nc3ccccc32)cc1 [Compound 51]" assay_value=0.08
